Each recorded value in this set is attributed to ChEMBL document CHEMBL4152385.

target: Mu-type opioid receptor (Homo sapiens, UniProt P35372); experiment: Agonist activity at human MOR expressed in CHOK1 cells assessed as reduction in forskolin-induced intracellular cAMP increase after 45 mins by HTRF analysis
Sequence (P35372 whole entry): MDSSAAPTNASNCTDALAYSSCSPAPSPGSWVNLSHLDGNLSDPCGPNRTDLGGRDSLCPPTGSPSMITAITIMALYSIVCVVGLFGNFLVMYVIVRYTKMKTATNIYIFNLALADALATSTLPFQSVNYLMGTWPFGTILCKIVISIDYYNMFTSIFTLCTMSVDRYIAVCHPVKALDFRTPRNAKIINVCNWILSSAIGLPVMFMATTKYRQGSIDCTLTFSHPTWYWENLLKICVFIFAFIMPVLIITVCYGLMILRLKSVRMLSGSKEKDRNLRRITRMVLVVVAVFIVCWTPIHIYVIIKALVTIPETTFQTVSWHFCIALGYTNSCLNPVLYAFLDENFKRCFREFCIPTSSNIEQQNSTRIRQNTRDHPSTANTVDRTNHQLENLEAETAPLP
Measure name: EC50 (µM)
Give bare numbers, in µM.

Would you mind telling me what EC50 value was observed for FCC[C@@H]1Cc2ccccc2C2(CCC(N3CCN(C4CCCCC4)CC3)CC2)O1 (stereo partly specified) ?
1.76

* * *

molecular target: Sigma non-opioid intracellular receptor 1 (Cavia porcellus, UniProt Q60492); experiment: Displacement of [3H]-(+)-pentazocine from sigma1 receptor in guinea pig brain cortex membranes incubated for 120 mins by scintillation counting method; assay type: cell membranes
Sequence (Q60492 whole entry): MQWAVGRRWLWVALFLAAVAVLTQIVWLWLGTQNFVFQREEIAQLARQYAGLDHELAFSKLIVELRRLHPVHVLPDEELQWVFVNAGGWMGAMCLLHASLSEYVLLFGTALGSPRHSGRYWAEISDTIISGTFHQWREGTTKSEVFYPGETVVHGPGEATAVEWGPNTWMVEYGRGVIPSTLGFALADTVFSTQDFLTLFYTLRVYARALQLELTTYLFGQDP
Measure name: Ki (nM)
Numbers only, in nM.

Use the examples below as a reference point.
{"Molecule": "CO[C@@H]1Cc2ccccc2C2(CCC(NCc3ccc(C)cc3C)CC2)O1 (some centres not stated)", "Readout units": "nM", "Ki": 736}
{"Molecule": "CCOC(=O)C[C@H]1Cc2ccccc2C2(CCC(NCc3ccc(C)cc3C)CC2)O1 (some centres not stated)", "Readout units": "nM", "Ki": 547}
{"Molecule": "O[C@@H]1Cc2ccccc2C2(CCC(N3CCN(C4CCCCC4)CC3)CC2)O1 (some centres not stated)", "Readout units": "nM", "Ki": 77}
{"Molecule": "COc1cc2c(cc1OC)CN(C1CCC3(CC1)O[C@H](O)Cc1ccccc13)CC2 (some centres not stated)", "Readout units": "nM", "Ki": 583}
{"Molecule": "FCC[C@H]1Cc2ccccc2C2(CCC(N3CCN(C4CCCCC4)CC3)CC2)O1 (some centres not stated)", "Readout units": "nM", "Ki": 19}
{"Molecule": "COc1cc2c(cc1OC)CN(C1CCC3(CC1)O[C@H](OC)Cc1ccccc13)CC2 (some centres not stated)", "Readout units": "nM", "Ki": 639}
{"Molecule": "FCC[C@@H]1Cc2ccccc2C2(CCC(NC3CCc4ccccc4CC3)CC2)O1 (some centres not stated)", "Readout units": "nM", "Ki": 667}
{"Molecule": "CO[C@H]1Cc2ccccc2C2(CCC(N3CCN(C4CCCCC4)CC3)CC2)O1 (some centres not stated)", "Readout units": "nM", "Ki": 4.4}
{"Molecule": "CO[C@@H]1Cc2ccccc2C2(CCC(NCc3ccccc3)CC2)O1 (some centres not stated)", "Readout units": "nM", "Ki": 538}
{"Molecule": "CO[C@H]1Cc2ccccc2C2(CCC(NCCCc3cn(-c4ccc(F)cc4)c4ccccc34)CC2)O1 (some centres not stated)", "Readout units": "nM", "Ki": 635}

Below are 2 molecules. Give each one its Ki.
1. Cc1ccc(CNC2CCC3(CC2)O[C@H](O)Cc2ccccc23)c(C)c1 (some centres not stated)
2. COc1cc2c(cc1OC)CN(C1CCC3(CC1)O[C@H](CCF)Cc1ccccc13)CC2 (some centres not stated)

1: 349; 2: 807
